Measured EC50 of individual entries
# target.under.test: T1, human CD24 on cells (human, UniProt P25063 27-59)
# T1 construct: whole, on cells; One molecule for all cell lines; the cell line is named under assay or readout; also called cell surface CD24; cell-based CD24
# T1 chain (looked up): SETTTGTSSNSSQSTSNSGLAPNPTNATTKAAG
# assay: flow cytometry (GMFI), MCF-7 cells; EC50 table under the graphs
endpoint.name: EC50 (µg/mL)

VH2 + VL1 (humanized 4451) (antibody, V domains shown, IgG expressed in HEK293) VH: QVQLVQSGAEVKKPGASVKVSCKASGYDFTGYHMNWVRQAPGQGLEWIGEINPITSDKTFNQKFKSRVTMTVDTSISTAYMELSRLRSDDTAVYYCARRDYGTSLDYWGQGTTVTVSS VL: DIQLTQSPSFLSASVGDRVTITCRASKSISKYLAWYQQKPGKAPKLLIYAGSTLHSGVPSRFSGSGSGTEFTLTISSLQPEDFATYYCQQHNEYPITFGQGTKLEIK: 0.45
VH4 + VL4 (humanized 4451) (antibody, V domains shown, IgG expressed in HEK293) VH: QVQLVQSGAEVKKPGASVKVSCKASGYDFTGYHMNWVKQAPGQGLEWIGEINPITSDKTFNQKFKSRATMTVDRSISTAYMELSRLRSDDTAVYYCARRDYGTSLDYWGQGTTVTVSS VL: DIQLTQSPSFLSASVGDRVTIYCRASKSISKYLAWYQQKPGKAPRLLIYAGSTLHSGIPSRFRGSGSGTEFTLTISSLQPEDFATYYCQQHNEYPITFGQGTKLEIK: 0.39
VH4 + VL1 (humanized 4451) (antibody, V domains shown, IgG expressed in HEK293) VH: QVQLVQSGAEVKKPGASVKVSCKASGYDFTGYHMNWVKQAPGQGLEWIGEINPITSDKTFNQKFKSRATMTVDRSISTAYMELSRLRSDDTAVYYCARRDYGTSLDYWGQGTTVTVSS VL: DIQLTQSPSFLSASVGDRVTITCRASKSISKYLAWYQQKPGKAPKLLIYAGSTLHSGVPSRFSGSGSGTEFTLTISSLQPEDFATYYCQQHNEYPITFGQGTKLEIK: 0.45
VH1 + VL3 (4451H) (antibody, V domains shown, also called Antibody No 0; Parental) VH: QVQLVQSGAEVKKPGASVKVSCKASGYDFTGYHMNWVRQAPGQGLEWMGEINPITSDKTFNQKFKSRVTMTRDTSISTAYMELSRLRSDDTAVYYCARRDYGTSLDYWGQGTTVTVSS VL: DIQLTQSPSFLSASVGDRVTITCRASKSISKYLAWYQQKPGKAPKLLIYAGSTLHSGIPSRFRGSGSGTEFTLTISSLQPEDFATYYCQQHNEYPITFGQGTKLEIK: 0.39
VH1 + VL4 (humanized 4451) (antibody, V domains shown, IgG expressed in HEK293) VH: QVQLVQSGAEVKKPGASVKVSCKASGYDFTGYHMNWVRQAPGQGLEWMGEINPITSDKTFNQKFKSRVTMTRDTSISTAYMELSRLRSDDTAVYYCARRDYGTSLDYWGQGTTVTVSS VL: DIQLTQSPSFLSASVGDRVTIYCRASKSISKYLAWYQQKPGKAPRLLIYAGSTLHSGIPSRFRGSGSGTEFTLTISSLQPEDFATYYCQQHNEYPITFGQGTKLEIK: 0.4

Data provenance is patent US20260265403A1.
